Values were extracted from patent US4853467A.

- System: HCT/VM34
- test method notes: In vitro cytotoxicity assay, HCT/VM34 teniposide-resistant human colon tumor
- Assay type: cell-based
- measurement parameters: HCT/VM34, resistant to teniposide; two values per compound; four-fold serial dilution
Reported In vitro cytotoxicity IC50, HCT/VM34 values for the following molecules.
Dear colleague, please return just the value in µg/mL, with no unit written.

CNc1cc([C@@H]2c3cc4c(cc3[C@@H](O[C@@H]3O[C@@H]5CO[C@@H](C)O[C@H]5[C@H](O)[C@H]3O)[C@H]3COC(=O)[C@H]23)OCO4)cc(OC)c1O [Example 4, 3'-Desmethoxy-3'-methylamine etoposide] = 33

Now for the molecule whose In vitro cytotoxicity IC50, HCT/VM34 we want.
Lab note: measured In vitro cytotoxicity IC50, HCT/VM34 of COc1cc([C@@H]2c3cc4c(cc3[C@@H](O[C@@H]3O[C@@H]5CO[C@@H](C)O[C@H]5[C@H](O)[C@H]3O)[C@H]3COC(=O)[C@H]23)OCO4)cc(NC(C)=O)c1O [Example 7, 3'-Acetylamino-3'-desmethoxy etoposide] was 65
